Value source: patent US8163724B2

Record form. Attribute: pIC50. Fill in for each entry.
target_system: recombinant human GR (Homo sapiens, UniProt P04150)
Construct: purchased Panvera/Invitrogen P2812 (kit P2893)
Sequence (P04150 1-777): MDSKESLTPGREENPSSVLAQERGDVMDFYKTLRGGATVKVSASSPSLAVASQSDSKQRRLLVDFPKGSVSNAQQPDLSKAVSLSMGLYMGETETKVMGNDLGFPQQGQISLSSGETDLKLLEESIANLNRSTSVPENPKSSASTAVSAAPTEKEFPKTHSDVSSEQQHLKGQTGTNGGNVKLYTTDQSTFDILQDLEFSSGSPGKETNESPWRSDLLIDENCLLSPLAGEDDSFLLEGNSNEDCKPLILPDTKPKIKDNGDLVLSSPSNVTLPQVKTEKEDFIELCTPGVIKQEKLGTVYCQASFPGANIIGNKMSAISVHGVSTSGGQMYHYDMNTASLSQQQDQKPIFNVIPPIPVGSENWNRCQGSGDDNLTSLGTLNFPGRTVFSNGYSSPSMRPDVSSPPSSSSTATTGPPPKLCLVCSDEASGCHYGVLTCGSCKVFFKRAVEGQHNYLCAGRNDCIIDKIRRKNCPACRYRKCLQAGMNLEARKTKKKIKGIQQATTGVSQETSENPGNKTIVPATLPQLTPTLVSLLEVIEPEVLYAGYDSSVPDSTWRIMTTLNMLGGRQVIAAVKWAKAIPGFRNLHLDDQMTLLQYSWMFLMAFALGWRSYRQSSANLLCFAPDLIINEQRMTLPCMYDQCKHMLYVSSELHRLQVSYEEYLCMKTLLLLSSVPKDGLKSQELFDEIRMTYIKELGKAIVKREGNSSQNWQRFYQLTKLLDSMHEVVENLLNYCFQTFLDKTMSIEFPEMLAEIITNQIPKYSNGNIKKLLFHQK
method: Human Glucocorticoid Receptor (GR) Assay (fluorescence polarization, Panvera/Invitrogen kit)
Assay type: binding
particulars: fluorescence polarization; GS Red tracer; 2 hours at room temperature; 100% control 10 μM Dexamethasone; read-out: Inhibition of GR binding, IC50
Numbers only, as −log10 of the molar value.

Examples with their reported pIC50 follow.
C[C@]12Cc3cnn(-c4ccc(F)cc4)c3C=C1CC[C@@H]1[C@@H]2[C@@H](O)C[C@@]2(C)[C@H]1CC[C@]2(OC(=O)CC1CCCC1)C(=O)SCC#N [Example 114] :: 7.80
C[C@@H]1C[C@H]2[C@@H]3CCC4=Cc5c(cnn5-c5ccc(F)cc5)C[C@]4(C)[C@H]3[C@@H](O)C[C@]2(C)[C@@]1(OC(=O)c1ccco1)C(=O)SCC#N [Example 141] :: 7.89

Field: next compound
[ask] Please give the measured pIC50 for this compound: C[C@]12Cc3cnn(-c4ccc(F)c(CO)c4)c3C=C1CC[C@@H]1[C@@H]2[C@@H](O)C[C@@]2(C)[C@H]1CC[C@]2(OC(=O)c1ccco1)C(=O)OCC#N [Example 79]
[reply] 8.38

* * *

target_system: recombinant human GR (Homo sapiens, UniProt P04150)
Construct: purchased Panvera/Invitrogen P2812 (kit P2893)
Sequence (P04150 1-777): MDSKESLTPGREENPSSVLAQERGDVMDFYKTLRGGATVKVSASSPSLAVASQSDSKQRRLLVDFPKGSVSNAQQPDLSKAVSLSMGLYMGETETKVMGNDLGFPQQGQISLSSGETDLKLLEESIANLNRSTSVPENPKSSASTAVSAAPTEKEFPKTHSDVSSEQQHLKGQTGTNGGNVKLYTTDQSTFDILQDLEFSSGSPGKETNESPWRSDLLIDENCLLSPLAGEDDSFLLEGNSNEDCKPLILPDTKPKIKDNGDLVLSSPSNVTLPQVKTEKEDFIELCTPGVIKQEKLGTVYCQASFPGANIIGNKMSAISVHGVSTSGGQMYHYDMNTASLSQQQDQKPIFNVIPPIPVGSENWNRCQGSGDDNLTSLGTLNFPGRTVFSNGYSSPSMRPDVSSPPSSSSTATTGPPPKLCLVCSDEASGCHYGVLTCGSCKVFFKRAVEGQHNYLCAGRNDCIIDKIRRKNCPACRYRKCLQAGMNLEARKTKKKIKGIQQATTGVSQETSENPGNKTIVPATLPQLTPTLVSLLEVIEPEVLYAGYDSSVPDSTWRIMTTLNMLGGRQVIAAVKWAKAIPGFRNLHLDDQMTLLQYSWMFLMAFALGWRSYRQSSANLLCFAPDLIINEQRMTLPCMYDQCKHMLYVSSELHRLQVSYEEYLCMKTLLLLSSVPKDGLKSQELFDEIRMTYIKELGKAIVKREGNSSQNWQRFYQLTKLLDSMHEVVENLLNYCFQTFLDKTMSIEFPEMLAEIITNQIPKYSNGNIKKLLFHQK
method: Human Glucocorticoid Receptor (GR) Assay (fluorescence polarization, Panvera/Invitrogen kit)
Type: binding
particulars: fluorescence polarization; GS Red tracer; 2 hours at room temperature; 100% control 10 μM Dexamethasone; read-out: Inhibition of GR binding, IC50
Record form. Attribute: pIC50. Fill in for each entry.
Answers are plain numbers, as −log10 of the molar value.

COCCCSC(=O)[C@@]1(OC(=O)c2ccco2)CC[C@H]2[C@@H]3CCC4=Cc5c(cnn5-c5ccc(F)cc5)C[C@]4(C)[C@H]3[C@@H](O)C[C@@]21C :: 8.20
CC(=O)OCSC(=O)[C@@]1(OC(=O)c2ccco2)CC[C@H]2[C@@H]3CCC4=Cc5c(cnn5-c5ccc(F)cc5)C[C@]4(C)[C@H]3[C@@H](O)C[C@@]21C :: 8.23
CC(C)C(=O)O[C@]1(C(=O)SCC#N)CC[C@H]2[C@@H]3CCC4=Cc5c(cnn5-c5ccc(F)cc5)C[C@]4(C)[C@H]3[C@@H](O)C[C@@]21C :: 8.20
CCC(=O)O[C@]1(C(=O)SCC#N)CC[C@H]2[C@@H]3C[C@H](C)C4=Cc5c(cnn5-c5ccc(F)cc5)C[C@]4(C)[C@H]3[C@@H](O)C[C@@]21C :: 7.96

Field: next compound
[ask] Please give the measured pIC50 for this compound: COC1(C(=O)O[C@]2(C(=O)SCC#N)CC[C@H]3[C@@H]4CCC5=Cc6c(cnn6-c6ccc(F)cc6)C[C@]5(C)[C@H]4[C@@H](O)C[C@@]32C)CC1
[reply] 8.12

* * *

Record form. Attribute: IC50. Fill in for each entry.
target_system: recombinant human GR (Homo sapiens, UniProt P04150)
Construct: purchased Panvera/Invitrogen P2812 (kit P2893)
method: Human Glucocorticoid Receptor (GR) Assay (fluorescence polarization, Panvera/Invitrogen kit)
Format: binding
particulars: fluorescence polarization; GS Red tracer; 2 hours at room temperature; 100% control 10 μM Dexamethasone; read-out: Inhibition of GR binding, IC50
Numbers only, in nM.

Examples with their reported IC50 follow.
C[C@]12Cc3cnn(-c4ccc(F)c(CO)c4)c3C=C1CC[C@@H]1[C@@H]2[C@@H](O)C[C@@]2(C)[C@H]1CC[C@]2(OC(=O)C1CC1)C(=O)SCC#N :: 3.8
C[C@]12Cc3cnn(-c4ccc(F)c(CF)c4)c3C=C1CC[C@@H]1[C@@H]2[C@@H](O)C[C@@]2(C)[C@H]1CC[C@]2(OC(=O)c1ccco1)C(=O)SCF :: 35
CCC(=O)O[C@]1(C(=O)SCC(C)=O)CC[C@H]2[C@@H]3CCC4=Cc5c(cnn5-c5ccc(F)cc5)C[C@]4(C)[C@H]3[C@@H](O)C[C@@]21C :: 4.8

[ask] Please give the measured IC50 for this compound: C[C@]12Cc3cnn(-c4ccc(F)c(CO)c4)c3C=C1CC[C@@H]1[C@@H]2[C@@H](O)C[C@@]2(C)[C@H]1CC[C@]2(OC(=O)c1ccco1)C(=O)SCC#N
[reply] 4.2

* * *

target_system: recombinant human GR (Homo sapiens, UniProt P04150)
Construct: purchased Panvera/Invitrogen P2812 (kit P2893)
method: Human Glucocorticoid Receptor (GR) Assay (fluorescence polarization, Panvera/Invitrogen kit)
Format: binding
particulars: fluorescence polarization; GS Red tracer; 2 hours at room temperature; 100% control 10 μM Dexamethasone; read-out: Inhibition of GR binding, IC50
endpoint: pIC50
Numbers only, as −log10 of the molar value.

CCOC(=O)[C@@]1(O)CC[C@H]2[C@@H]3CCC4=Cc5c(cnn5-c5ccc(F)cc5)C[C@]4(C)[C@H]3[C@@H](O)C[C@@]21C :: 8.38

For each of the compounds below, state pIC50.
1. COCSC(=O)[C@@]1(OC(=O)COC)CC[C@H]2[C@@H]3CCC4=Cc5c(cnn5-c5ccc(F)nc5)C[C@]4(C)[C@H]3[C@@H](O)C[C@@]21C
2. Cc1ccoc1C(=O)O[C@]1(C(=O)SCF)CC[C@H]2[C@@H]3CCC4=Cc5c(cnn5-c5ccc(F)cc5)C[C@]4(C)[C@H]3[C@@H](O)C[C@@]21C
3. COCc1cc(-n2ncc3c2C=C2CC[C@@H]4[C@H]([C@@H](O)C[C@@]5(C)[C@H]4CC[C@]5(OC(=O)c4ccco4)C(=O)SCC#N)[C@@]2(C)C3)ccc1F

[reply]
1: 8.62; 2: 8.42; 3: 8.19
